Property: Average survival days (control); scope: individual compounds
System: Candida albicans KB-8
Experiment: Antifungal activity test (in vivo), Candida albicans infection in mice
Conditions: DDY male mice infected i.v. with 10^7 cells; oral, total dose 20 mg/kg at 0, 5, 24 and 48 hours after infection; 10 days observation; number in brackets is the non-medicated control
Experimental: Antifungal activity test (in vivo):-Candida albicans KB-8 as pre-cultured at 30°C for 4 days was suspended in physiologically saline solution, and the suspension was intravenously injected into DDY strain male mice of 5 weeks old, every 10 animals being grouped, through the tail vein so as to inoculate a cell number of 10^7 per animal. […]
Value Type: Average survival days (control)

INSERT INTO measurements (compound, target_or_system, value_type, experimental_result) VALUES
  ('CS(=O)(=O)CC(O)(Cn1cncn1)c1ccc(Cl)cc1Cl (stereo not shown) [I, reference compound]', 'Candida albicans KB-8', 'Average survival days (control)', '9.6 (1.2) days'),
  ('CC(=O)N1CCN(c2ccc(OCC3COC(Cn4ccnc4)(c4ccc(Cl)cc4Cl)O3)cc2)CC1 (stereo not shown) [Ketoconazole, reference compound]', 'Candida albicans KB-8', 'Average survival days (control)', '4.8 (0.8) days'),
  ('CCCC(C)[S+]([O-])CC(O)(Cn1cncn1)c1ccc(Cl)cc1Cl (single isomer, unassigned)', 'Candida albicans KB-8', 'Average survival days (control)', '9.2 (1.2) days'),
  ('CCC(C)(C)S(=O)(=O)CC(O)(Cn1cncn1)c1ccc(Cl)cc1Cl (stereo not shown) [II, reference compound]', 'Candida albicans KB-8', 'Average survival days (control)', '1.4 (1.0) days');
